Test system: Streptococcus pyogenes
Run description: Subcutaneously administration into mice infected with Streptococcus pyogenes C 203
Assay type: functional
Test conditions: sc
Recorded endpoint: ED50
Enter the number, and then the unit.

Here are 2 compounds together with their reported answers.
[[record]]
structure_smiles_string = "CCCCN(CCCC)CCCNC(=O)[C@H]1NC(=O)[C@H]2NC(=O)[C@H](NC(=O)[C@@H]3NC(=O)[C@H]4NC(=O)[C@@H](Cc5ccc(c(Cl)c5)Oc5cc3cc(c5O[C@@H]3O[C@@H](CO)[C@@H](O)[C@H](O)[C@@H]3NC(=O)CCCCCCC(C)C)Oc3ccc(cc3Cl)[C@H]2O[C@@H]2O[C@@H](CO)[C@@H](O)[C@H](O)[C@@H]2NC(C)=O)NC(=O)[C@H](N)c2ccc(O)c(c2)Oc2cc(O)cc4c2)c2ccc(O)c(c2)-c2c(O[C@H]3O[C@H](CO)[C@@H](O)[C@@H](O)[C@@H]3O)cc(O)cc21"
recorded_endpoint = "ED50"
reported_result = "0.1 mg/kg"

[[record]]
structure_smiles_string = "CN1CCN(C(=O)[C@H]2NC(=O)[C@H]3NC(=O)[C@H](NC(=O)[C@@H]4NC(=O)[C@H]5NC(=O)[C@@H](Cc6ccc(c(Cl)c6)Oc6cc4cc(c6O)Oc4ccc(cc4Cl)[C@H]3O)NC(=O)[C@H](N)c3ccc(O)c(c3)Oc3cc(O)cc5c3)c3ccc(O)c(c3)-c3c(O)cc(O)cc32)CC1"
recorded_endpoint = "ED50"
reported_result = "0.95 mg/kg"


Switching to the query record.
Q: Requested field: ED50. Item: "CN(C)CCCCCNC(=O)[C@H]1NC(=O)[C@H]2NC(=O)[C@H](NC(=O)[C@@H]3NC(=O)[C@H]4NC(=O)[C@@H](Cc5ccc(c(Cl)c5)Oc5cc3cc(c5O)Oc3ccc(cc3Cl)[C@H]2O)NC(=O)[C@H](N)c2ccc(O)c(c2)Oc2cc(O)cc4c2)c2ccc(O)c(c2)-c2c(O)cc(O)cc21"
A: 0.72 mg/kg

---

Tested on: Enterococcus faecalis
Run description: In vitro minimum inhibitory concentration against Streptococcus faecalis ATCC 7080
Format: functional
Recorded endpoint: MIC (µg/mL)
Numeric only. Scale: µg/mL

Worked examples follow.
[[record]]
structure_smiles_string = "CCCCN(CCCC)CCCNC(=O)[C@H]1NC(=O)[C@H]2NC(=O)[C@H](NC(=O)[C@@H]3NC(=O)[C@H]4NC(=O)[C@@H](Cc5ccc(c(Cl)c5)Oc5cc3cc(c5O[C@@H]3O[C@@H](CO)[C@@H](O)[C@H](O)[C@@H]3NC(=O)CCCCCCC(C)C)Oc3ccc(cc3Cl)[C@H]2O[C@@H]2O[C@@H](CO)[C@@H](O)[C@H](O)[C@@H]2NC(C)=O)NC(=O)[C@H](N)c2ccc(O)c(c2)Oc2cc(O)cc4c2)c2ccc(O)c(c2)-c2c(O[C@H]3O[C@H](CO)[C@@H](O)[C@@H](O)[C@@H]3O)cc(O)cc21"
recorded_endpoint = "MIC"
u = "µg/mL"
reported_result = 0.12

[[record]]
structure_smiles_string = "CCCCN(CCCC)CCCNC(=O)[C@H]1NC(=O)[C@H]2NC(=O)[C@H](NC(=O)[C@@H]3NC(=O)[C@H]4NC(=O)[C@@H](Cc5ccc(c(Cl)c5)Oc5cc3cc(c5O)Oc3ccc(cc3Cl)[C@H]2O[C@@H]2O[C@@H](CO)[C@@H](O)[C@H](O)[C@@H]2NC(C)=O)NC(=O)[C@H](N)c2ccc(O)c(c2)Oc2cc(O)cc4c2)c2ccc(O)c(c2)-c2c(O[C@H]3O[C@H](CO)[C@@H](O)[C@@H](O)[C@@H]3O)cc(O)cc21"
recorded_endpoint = "MIC"
u = "µg/mL"
reported_result = 0.5

[[record]]
structure_smiles_string = "CNCCNC(=O)[C@H]1NC(=O)[C@H]2NC(=O)[C@H](NC(=O)[C@@H]3NC(=O)[C@H]4NC(=O)[C@@H](Cc5ccc(c(Cl)c5)Oc5cc3cc(c5O[C@@H]3O[C@@H](CO)[C@@H](O)[C@H](O)[C@@H]3NC(=O)CCCCCCC(C)C)Oc3ccc(cc3Cl)[C@H]2O[C@@H]2O[C@@H](CO)[C@@H](O)[C@H](O)[C@@H]2NC(C)=O)NC(=O)[C@H](N)c2ccc(O)c(c2)Oc2cc(O)cc4c2)c2ccc(O)c(c2)-c2c(O[C@H]3O[C@H](CO)[C@@H](O)[C@@H](O)[C@@H]3O)cc(O)cc21"
recorded_endpoint = "MIC"
u = "µg/mL"
reported_result = 0.12


Q: Form field: reported MIC of "CC(=O)N[C@@H]1[C@H](O[C@@H]2c3ccc(c(Cl)c3)Oc3cc4cc(c3O)Oc3ccc(cc3Cl)C[C@H]3NC(=O)[C@H](N)c5ccc(O)c(c5)Oc5cc(O)cc(c5)[C@H](NC3=O)C(=O)N[C@H]4C(=O)N[C@H]3C(=O)N[C@@H]2C(=O)N[C@H](C(=O)O)c2cc(O)cc(O)c2-c2cc3ccc2O)O[C@@H](CO)[C@@H](O)[C@@H]1O"
A: 1

Q: Quick one: MIC of "CC(=O)N[C@@H]1[C@H](O[C@@H]2c3ccc(c(Cl)c3)Oc3cc4cc(c3O[C@@H]3O[C@@H](CO)[C@@H](O)[C@H](O)[C@@H]3NC(=O)CCCCCCC(C)C)Oc3ccc(cc3Cl)C[C@H]3NC(=O)[C@H](N)c5ccc(O)c(c5)Oc5cc(O)cc(c5)[C@H](NC3=O)C(=O)N[C@H]4C(=O)N[C@H]3C(=O)N[C@@H]2C(=O)N[C@H](C(=O)N(C)CCN(C)C)c2cc(O)cc(O[C@H]4O[C@H](CO)[C@@H](O)[C@@H](O)[C@@H]4O)c2-c2cc3ccc2O)O[C@@H](CO)[C@@H](O)[C@@H]1O" ?
A: 0.06
